- testedTarget: Intestinal alkaline phosphatase (Alpi) [Mus musculus]
- experimentSummary: inhibitors of murine Alpi enzyme – biochemical, ortholog specificity, luminescence, selectivity assay for human IAP inhibitor project, SAR follow-up (AID 493142)
- protocolConditions: Purified mouse IAP, CDP-Star luminescence, 30 min
Active and inactive are the calls of the source.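 The calls were made as follows: active = mean IC50 below 100 µM; inactive = the rest.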
Classes used: active, inactive

molecule: COc1cc(C=NN=C2SC(CC(=O)O)C(=O)N2c2ccc(O)cc2)ccc1O (stereo unspecified)
classLabel: inactive
--
molecule: Cc1cc(C)cc(Nc2nc(-c3ccc(O)cc3O)cs2)c1
classLabel: inactive
--
molecule: COc1ccc(/C=N/N=C2\NC(=O)C(CC(=O)O)S2)c(OC)c1 (stereo unspecified)
classLabel: inactive
--
molecule: O=C(O)CC1S/C(=N/N=C/c2ccco2)NC1=O (stereo unspecified)
classLabel: inactive
--
molecule: COC(=O)/C=C1/S/C(=N/NC(=O)c2ccccc2OC)NC1=O
classLabel: inactive
--
molecule: Cc1cccc(Nc2nc(-c3ccc(O)c(O)c3)cs2)c1
classLabel: active
--
molecule: COC(=O)/C=C1\S/C(=N/N=C/c2ccc(Cl)cc2)NC1=O
classLabel: inactive
--
molecule: NS(=O)(=O)c1ccc(Nc2nc(-c3ccc(O)c(O)c3)cs2)cc1
classLabel: active
--
molecule: Cc1cccc2sc(NNC(=O)c3ccc4c(c3)OCCO4)nc12
classLabel: active
--
molecule: COC(=O)/C=C1/S/C(=N/NC(=O)c2ccc(Cl)cc2Cl)NC1=O
classLabel: inactive
--
molecule: COC(=O)/C=C1/S/C(=N/NC(=O)c2ccccc2C)NC1=O
classLabel: inactive

----------
- testedTarget: Intestinal alkaline phosphatase (Alpi) [Mus musculus]
- experimentSummary: inhibitors of murine Alpi enzyme – biochemical, ortholog specificity, luminescence, selectivity assay for human IAP inhibitor project, SAR follow-up (AID 493142)
- protocolConditions: Purified mouse IAP, CDP-Star luminescence, 30 min
Activity calls are given as the source filed them.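 How the source made its calls: active means mean IC50 below 100 µM; inactive means the rest.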
Classes used: 1.0 = active, 0.0 = inactive

compound: Cc1cc(=O)oc2cc(NC(=S)NCCC(c3ccccc3)c3ccccc3)ccc12
classLabel: 0.0
//
compound: COc1cccc(Nc2nc(-c3ccc(O)cc3)cs2)c1
classLabel: 0.0
//
compound: Cc1ccc2nc(NNC(=O)c3ccc4c(c3)OCCO4)sc2c1
classLabel: 1.0
//
compound: COC(=O)C/C=N/N=C1\NC(=O)/C(=C/C(=O)O)S1
classLabel: 0.0
//
compound: COc1ccc(C=NNC(=S)Nc2ccccc2[N+](=O)[O-])cc1O
classLabel: 0.0
//
compound: Cc1ccc(Nc2nc(-c3ccc(O)cc3O)cs2)cc1C
classLabel: 0.0
//
compound: COc1ccc(NC(=S)NCCC(c2ccccc2)c2ccccc2)cc1
classLabel: 0.0
//
compound: Cc1cccc(NC(=S)NN=Cc2ccc3c(c2)OCO3)c1
classLabel: 0.0
//
compound: Cc1ccc(-c2ccc(/C=N/N=C3\NC(=O)C(CC(=O)O)S3)o2)c([N+](=O)[O-])c1 (stereo unspecified)
classLabel: 0.0
//
compound: Cc1cccc(Nc2nc(-c3ccc(O)c(C(N)=O)c3)cs2)c1
classLabel: 0.0
//
compound: N#CCCn1cc(/C=N/N=C2/NC(=O)C(CC(=O)O)S2)c(-c2ccc(F)cc2)n1 (stereo unspecified)
classLabel: 0.0

----------
- testedTarget: Intestinal alkaline phosphatase (Alpi) [Mus musculus]
- experimentSummary: inhibitors of murine Alpi enzyme – biochemical, ortholog specificity, luminescence, selectivity assay for human IAP inhibitor project, SAR follow-up (AID 493142)
- protocolConditions: Purified mouse IAP, CDP-Star luminescence, 30 min
Activity calls are given as the source filed them.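 Rule for the calls: active = mean IC50 below 100 µM; inactive = the rest.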
Classes used: active, inactive

compound: CCOc1ccc(Nc2nc(-c3ccc(O)c(O)c3)cs2)cc1
classLabel: active

compound: CCOc1cc(/C=N/N=C2\NC(=O)C(CC(=O)O)S2)ccc1O (stereo not given)
classLabel: inactive

compound: O=[N+]([O-])c1ccc(NC(=S)NCCC(c2ccccc2)c2ccccc2)cc1
classLabel: inactive

compound: COc1cc([N+](=O)[O-])ccc1NC(=S)NCCC(c1ccccc1)c1ccccc1
classLabel: inactive

compound: COc1cc(C=NNC(=S)Nc2cccc(S(=O)(=O)N(C)C)c2)cc(OC)c1O
classLabel: inactive

----------
- testedTarget: Intestinal alkaline phosphatase (Alpi) [Mus musculus]
- experimentSummary: inhibitors of murine Alpi enzyme – biochemical, ortholog specificity, luminescence, selectivity assay for human IAP inhibitor project, SAR follow-up (AID 493142)
- protocolConditions: Purified mouse IAP, CDP-Star luminescence, 30 min
The source made the active and inactive calls.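 The calls were made as follows: active = mean IC50 below 100 µM; inactive = the rest.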
Classes used: true (active), false (inactive)

compound: Cc1ccc(Nc2nc(-c3ccc(O)cc3O)cs2)cc1
classLabel: false
//
compound: Cc1ccc(C)c(Nc2nc(-c3ccc(O)cc3O)cs2)c1
classLabel: false
//
compound: CC(C)(C)c1ccc(/C=N/N=C2\NC(=O)C(CC(=O)O)S2)cc1 (stereo unspecified)
classLabel: false
//
compound: O=[N+]([O-])c1ccccc1NC(=S)N/N=C/c1ccc(O)c(O)c1O
classLabel: true
//
compound: CCN(CC)S(=O)(=O)c1ccc(-c2csc(=Nc3cccc4ccccc34)n2C)cc1
classLabel: false
//
compound: CC(=NNC(=S)Nc1ccccc1)c1ccc2c(c1)OCO2
classLabel: false
//
compound: COC(=O)/C=C1/S/C(=N/N=Cc2ccc(N(C)C)cc2)NC1=O
classLabel: false
//
compound: Cc1ccc(Cl)cc1Nc1nc(-c2ccc(O)c(O)c2)cs1
classLabel: true
//
compound: COc1cc(C=NNC(=S)Nc2cccc(S(=O)(=O)N(C)C)c2)ccc1O
classLabel: false
//
compound: FC(F)(F)c1cccc(NC(=S)NCCC(c2ccccc2)c2ccccc2)c1
classLabel: false
//
compound: COc1cc(/C=N/N=C2/SCC(=O)N2c2ccc(O)cc2)ccc1O
classLabel: false

----------
- testedTarget: Intestinal alkaline phosphatase (Alpi) [Mus musculus]
- experimentSummary: inhibitors of murine Alpi enzyme – biochemical, ortholog specificity, luminescence, selectivity assay for human IAP inhibitor project, SAR follow-up (AID 493142)
- protocolConditions: Purified mouse IAP, CDP-Star luminescence, 30 min
The source made the active and inactive calls.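 How the source made its calls: active means mean IC50 below 100 µM; inactive means the rest.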
assayReadout: IC50

smilesString: COC(=O)/C=C1\SC(N=Nc2c(O)[nH]c3ccccc23)=NC1=O
assayReadout: IC50
valueReported: > 100 µM (inactive)

smilesString: COC(=O)/C=C1/S/C(=N/NC(=O)c2ccc(OC)cc2)NC1=O
assayReadout: IC50
valueReported: > 100 µM (inactive)

smilesString: Cc1ccc2sc(NNC(=O)c3ccc4c(c3)OCCO4)nc2c1C
assayReadout: IC50
valueReported: > 100 µM (inactive)

smilesString: S=C(NCCC(c1ccccc1)c1ccccc1)Nc1ccc(Cl)cc1Cl
assayReadout: IC50
valueReported: > 100 µM (inactive)

smilesString: O=S(=O)(c1ccc(NC(=S)N/N=C/c2ccc(O)c(O)c2)cc1)N1CCOCC1
assayReadout: IC50
valueReported: 1.02 µM

smilesString: Cc1ccc(Nc2nc(-c3ccc(O)c(O)c3)cs2)cc1
assayReadout: IC50
valueReported: 6.64 µM

smilesString: Cn1c(=S)n(N=Cc2ccc3c(c2)OCO3)c2ccccc21
assayReadout: IC50
valueReported: > 100 µM (inactive)

smilesString: Cc1cccc(C)c1NC(=S)N/N=C/c1ccc(O)c(O)c1O
assayReadout: IC50
valueReported: 58.3 µM

smilesString: CN(C)S(=O)(=O)c1cccc(NC(=S)NN=Cc2ccc(O)c(O)c2O)c1
assayReadout: IC50
valueReported: 27.6 µM

smilesString: CCOc1cc(C=NNC(=S)NC2CCCCC2)ccc1O
assayReadout: IC50
valueReported: > 100 µM (inactive)

smilesString: Cc1ccc(Nc2nc(-c3ccc(O)c(O)c3)cs2)cc1F
assayReadout: IC50
valueReported: 9.66 µM
